- System: Tyrosine-protein kinase ABL1 (Homo sapiens), P00519 [T315I]
- testDescription: Residual activity of human Abl T315I mutant at 1 uM relative to control
observable: residual activity (%)

1. O=C1NC(=O)C2=C1c1cn(c3ccccc13)CCCc1cc(nc(N3CCCC3)c1)CCCn1cc2c2ccccc21	77
2. CN(C)c1nc2ccc1CCCn1cc(c3ccccc31)C1=C(C(=O)NC1=O)c1cn(c3ccccc13)CC2	100
3. O=C1NC(=O)C2=C1c1cn(c3ccccc13)CCCc1ccc(c(N3CCCC3)n1)CCCn1cc2c2ccccc21	103
4. CN(C)c1cc2cc(n1)CCCn1cc(c3ccccc31)C1=C(C(=O)NC1=O)c1cn(c3ccccc13)CCC2	79
